Every entry's value here was drawn from PubChem BioAssay.

Test: inhibitors of the yeast RAM network, pilot screen, dse1pr::URA3 reporter, 5-FOA selection (AID 869);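 further: 0% = DMSO wells with no growth and 100% = 10 µM 1-NA-PP1 with full growth; RAM network block rescues cells from 5-FOA so hits raise OD615 growth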
Conditions: S. cerevisiae dse1pr::URA3 5-FOA growth, OD615, 2 d; at 10 µM; hits give high values; strain carries analog-sensitive mutant Cbk1 kinase

| Compound | inhibition (%) |
| --- | --- |
| O=C(NCc1ccco1)c1ccc(CN2CCOCC2)cc1 | 2.41 |
| CCOc1ccc2[nH]cc(S(=O)(=O)c3ccc(F)cc3)c(=O)c2c1 | 0.455 |
| Cc1ccc(C)c(-n2nnnc2SCC(=O)Nc2cccc(-c3nnc4n3CCCCC4)c2)c1 | 1.77 |
| CC1(C)CC(=O)C=C(Nc2cc(-c3ccccc3)[nH]n2)C1 | -0.355 |
| CC(C)c1ccccc1NC(=O)CCCC(=O)O | 0.36 |
| NCCOc1ccccc1-c1ccccc1 | 2.3 |
| CCC1(C(=O)O)NC(c2cccc(OC)c2O)C2C(=O)N(c3ccccc3)C(=O)C21 (stereo not given) | 3.62 |
| C=CCn1c(CCCNC(=O)CCC)nc2ccccc21 | -0.095 |
| Nc1c(S(=O)(=O)c2ccccc2)c2nc3ccccc3nc2n1Cc1ccco1 | 2.83 |
| COc1ccc(OC)c(NC(=O)C2CCCN(S(=O)(=O)c3cccc4cccnc34)C2)c1 (stereo not given) | 1.78 |
| Cc1cc(N2CCN(S(=O)(=O)c3ccc(Cl)cc3)CC2)c2ccccc2n1 | -0.15 |
| CC(NC(=O)CN1CCN(Cc2ccc(Cl)cc2)C1=O)c1ccc2c(c1)OCCO2 (stereo not given) | -0.3 |
| CCCCCCN1C(=O)C(O)=C(C(C)=O)C1c1ccc(Cl)cc1 (stereo not given) | -0.245 |
| O=C(OCCOCCN=C1NS(=O)(=O)c2ccccc21)C1CC(=O)N(c2ccccc2)C1 (stereo not given) | 2.11 |
| CCOc1cc(C2C(C(=O)c3ccco3)=C(O)C(=O)N2CCc2ccccc2)ccc1O (stereo not given) | 4.93 |
| Cc1ccc(S(=O)(=O)/N=C(\CN2CCCCC2)N2CCOCC2)cc1 | 0.44 |
| CCOc1ccc(CC(=O)NCc2cn3c(C)csc3n2)cc1 | 1.14 |
| Nc1ncnc2c1ncn2C1CCC(CO)C(O)C1 (stereo not given) | 1.32 |
| Cn1nnc2c(NCc3ccco3)nccc21 | 3.05 |
| COCCOC(=O)C1=C(C)NC(=O)NC1c1c(F)cccc1Cl (stereo not given) | 0.515 |
| Cc1ccc(N=Cc2c(O)n(C)c(=O)n(C)c2=O)nc1 | 1.89 |
| O=S(=O)(NC1CCCCC1)c1cccc(-c2nnc(-c3ccccc3)o2)c1 | 0.285 |
| CC(C)Sc1nc(SCC(=O)NCc2ccco2)c2c3c(sc2n1)COC(C)(C)C3 | 0.615 |
| COc1ccc2oc(C(=O)C3CC3)c(NC(=O)CCCN3C(=O)c4ccccc4C3=O)c2c1 | 0.995 |
| COc1cc(CCC(=O)N2CCN(c3ccc(N4CCOCC4)nn3)CC2)cc(OC)c1OC | 0.43 |
| Cc1ccc(O)c(NC(=O)CCC2CCCCC2)c1 | 4.25 |
| CC(CCc1ccco1)NC(=O)Cn1nc(Cc2ccncc2)c2ccccc2c1=O (stereo not given) | 2.26 |
| O/N=C1\CCCc2oc3c(c21)CCCC3 | 2.48 |
| CCOC(=O)N1CCN(C(=O)C(C)(C)Oc2ccc(Cl)cc2)CC1 | 0.28 |
| Cc1cc(C)nc(SCC(=O)Nc2ccc(S(=O)(=O)Nc3onc(C)c3C)cc2)n1 | 0.88 |
| COc1cc(C(=O)NCC(c2ccco2)N2CCCC2)ccc1OCc1c(C)noc1C (stereo not given) | 1.03 |
| COc1ccc(N2CCN(CCNC(=O)CCNS(=O)(=O)c3cccs3)CC2)cc1 | 1.71 |
| O=C1CC(N2CCN(C(c3ccccc3)c3ccccc3)CC2)C(=O)N1 (stereo not given) | 1.03 |
| CC12COC3(C(=O)Nc4cccnc4)CC1CCC32C (stereo not given) | 1.51 |
| CN(C)c1oc(-c2ccccc2Cl)nc1S(=O)(=O)c1ccccc1 | 1.2 |
| CCOC(=O)CN1CC23C=CC(O2)C(C(=O)O)C3C1=O (stereo not given) | 0.73 |
| COc1ccc(OCC(=O)NC2CC(C)(C)NC(C)(C)C2)cc1 | -0.405 |
| C#CCN1C(=O)C(O)(CC(=O)c2ccc(OC)c(OC)c2)c2ccccc21 (stereo not given) | 1.62 |
| Cc1cccc(N2CCN(S(C)(=O)=O)CC2)c1C | 0.76 |
| CCN(CC)CCNC(=O)Cn1nc(Cc2cccnc2)c2ccccc2c1=O | -0.35 |
| COc1ccc(OC)c(N(CC(=O)Nc2ccc3c(c2)OCO3)S(=O)(=O)c2ccccc2)c1 | 3.23 |
| Cc1cc(Cl)ccc1NC(=O)CSc1nnc(-c2ccncc2)n1Cc1ccco1 | 1 |
| CCOC(=O)c1cnc2ccc(C(=O)OC)cc2c1NCCN1CCOCC1 | 2.41 |
| Cc1[nH]nc2c1C(c1ccccc1F)NC2=O (stereo not given) | 2.04 |
| COc1ccc(C2C(C(=O)N3CCCCC3)CCC(=O)N2c2cc(OC)c(OC)c(OC)c2)cc1 (stereo not given) | 0.98 |
